run.description: soluble on expression in E. coli; label from the status in PepcDB or PDB records
measure.name: soluble on expression in E. coli

[[record]]
sequence_record = "MAHHHHHHMSEERVKILVLGPSRSGKSTIANFLAGLRETPTKGYYETQPLRILEVEIGLDNLKVGGRHVVGPKKAIVQLWDLGGSSKHQAGWQAVAANADGIIYVFNPEVRGAEKELVLWHKNFALDQDKLDERNNFKVRVPDKHSLVFSHHSSMPELAVGDNAIPSLPKQLRGVRAIETSLDYQSGNFKEAFDAMVEQIVVSRIVAEEDEILQKEREAGDAPRMVR"
reported_value = "not soluble"

[[record]]
sequence_record = "GHMGAWLASLKQTLGLLPADRKIRVLMLGLDNAGKTSILYRLHLGDVVTTVPTVGVNLETLQYKNISFEVWDLGGQTGVRPYWRCYFSDTDAVIYVVDSTDRDRMGVAKHELYALLDEDELRKSLLLIFANKQDLPDAASEAEIAEQLGVSSIMNRTWTIVKSSSKTGDGLVEGMDWLVERLREQGLGA"
reported_value = "soluble"

[[record]]
sequence_record = "MGSDKIHHHHHHMKVAYVIGGLPFGGVESWLLDLARHVSKTSDFECRVFNVSGTGVKMPEYISSGVDVVCAGNSLDSIATHRIDTVLRLRSQLVEYAPDIIHTLHFSGDYCGRLASIGLGVPVVTHLRNIKCERKLRRRLANKLLSFFTDMYLSVSRAVADMVADDHNIAKRPSRVIYNAVDPQKLAVEPHDLTAMYGVSGRIVVGVGRYVGQKNFDLLLRALRLVLDEGHDISVVLVGEGGERPHLERLIRELSLEGHAVLTGYRQDVPRFLRASYALAMPSDFEGLPITHLEAMFCGLPAIVSRHVPSLEIAREASLVCKRSPESIAQCIIRLLEDEKLHSTLSNTGSRIASEHTMDLYIKTLKGIYDELASRGKEI"
reported_value = "not soluble"

[[record]]
sequence_record = "MSRNHFNELSPCEALIMKLIWEAPQDIPVQELIDQLRDDYGKEYARTTVVTFVGKLKDKRFVDTYRKGKSAFIHPLRSEEEYRRQLLKEEADFWFNGKAVDMVASICESQKLEDDEIKRIKKILNGLNK"
reported_value = "not soluble"

[[record]]
sequence_record = "MGSDKIHHHHHHMLFRASRSDMSNLTNCITNESVAVTADKKPVIGRIHSFESCGTVDGPGIRFITFFQGCLMRCLYCHNRDTWDTHGGKEITVEDLMKEVVTYRHFMNASGGGVTASGGEAILQAEFVRDWFRACKKEGIHTCLDTNGFVRRYDPVIDELLDVTDLVMLDLKQMNDEIHQNLVGVSNHRTLEFAQYLSKKNVKVWIRYVVVPGWSDDDDSAHRLGEFTRDMGNVEKIELLPYHELGKHKWVAMGEEYKLDGVKPPKKETMERVKGILEQYGHKVMY"
reported_value = "not soluble"

[[record]]
sequence_record = "GGELVLLPAPQIPLIMKIMKKHTPTWVPGVPTLYQKIVEAAERDGISISGVRNSFSGASSLPVETVARWEALTGGLLVEGYGLTETSPIIVGNPMTTDRRPGYVGVPFPDTEIRIANPDNLDETMPDGQEGEVLVRGPQVFSGYLNNPEATAKSFHGQWYRTGDVGIMEEDGFIRLVARIKEVIITGGFNVYPAEVEEVLRNHPDITDATVVGLPRGD"
reported_value = "not soluble"

[[record]]
sequence_record = "MKMNYHLSTSSYTTSMLSCTVLDDDIRYEKLSWKLDEAEMQGLIM"
reported_value = "soluble"

[[record]]
sequence_record = "MVSRHIPERLKKKIYQEANMTCPNCGERDVSTFEIHHIQPFVDVKKHEERNLILLCSNCHSKATVGELTEIEVLRLKVGLISSSSGQSKETMPSNVITLDSVKNHGVIANQVTLNNSPAKVVLLPAVGSIASSLKHQNYIKYLIDKYHAYKIVEVGKSNMKYPVFYNALKRKFGAKWDMVPIDRFLELSTYIQDRIEKTVLGKKLKAQGKKSYSTFEEYLAKNCSLEHHHHHH"
reported_value = "not soluble"

[[record]]
sequence_record = "MSDEDERHRKKMKRKTCTGDSKSPAKKKQKIKDKSEEKSHAVQKHDAIGGKADSTKTKVKLSGKDKDKGKISKSAHSTEWTENDKKSSSDGGKKQIKRNEKGQLLFKDHPEFTPNMTPKEVLQAGSFGGTYFRPIYSSITKKHYKDVWKELPEDWLDGLNIPEQVASSTYREKVNTYKVKCGGSLEMWESSGWIVPQDPYGWFQWYCRFYQGRRTEDDARQISRWSKCAGVKGRWRNNLITKVVRSGCAYDNVTVSPVVRQTLQHWGYKLTPEDYKQGAKRVKLK"
reported_value = "not soluble"

[[record]]
sequence_record = "MGSDKIHHHHHHMVRQFLPLNGLRAFEASARHLSFTRAAIELCVTQAAVSQQVKGLEKRLGVALFQRLPRGLKITAEGEALLPTVTSSFDQMATTLDRIEAGQVRELLFLGVVGTFAVGWLLPRLAAFQKRHPFIDVRVSTNNNRVDMAAEGLDFAIRFGQGSWHGTDAFRLFEAPLSPLCTPKLAEMLKEPADLMDATLLRSYRADEWSTWFAAAGVSPAAQVNAGIVFDTSLGMMEAALQGLGVALAPPSMFSRHLTSGAVMQPFPVTISLGSYWLTRLQSKPQTSAMQAFSDWLLETIGTA"
reported_value = "not soluble"

[[record]]
sequence_record = "MLNILDIITDWIKEILRDCIMGNLDGMFDQINNEVGEVAANVGTTPAAWNAGVFSMIRNLSDT"
reported_value = "not soluble"

[[record]]
sequence_record = "SASVRIREAKEGDCGDILRLIRELAEFEKLSDQVKISEEALRADGFGDNPFYHCLVAEILPAPGKLLGPCVVGYGIYYFIYSTWKGRTIYLEDIYVMPEYRGQGIGSKIIKKVAEVALDKGCSQFRLAVLDWNQRAMDLYKALGAQDLTEAEGWHFFCFQGEATRKLAGK"
reported_value = "soluble"

[[record]]
sequence_record = "MGSDKIHHHHHHMREHDEGLLNGITPDRIRDHIRALEGVRHPLAAPEALERAAGYIRETFGSLGYPVADHLFMDGGREFANIIATHTGGSKSGRRVLVVAHYDTVTTTPGADDNASGVAVLLELATILKCLRFERCLQFVAVTLEENEDEHNPRDLGTRGSRALAAHARREGWEIEGAVVLESVAYAGDAVVQRTPAGIPFTVPATGNFIGVIGNEASRGMVDRFGQAVGSREAGLPWVPLVVPGNGGLLPDSRRSDHAPFWDHGYKAIMLTDTTNFRNPHYHQPSDTLETLNLDFAVQVCRATAALLLDIAKASEP"
reported_value = "not soluble"

